All figures here come from patent US20230233569A1.

Would you kindly list pIC50 for each of these molecules?
- testedOn: KRAS G12V (Homo sapiens, UniProt P01116+P62937, G12V)
- Sequence (P01116 1-169 isoform P01116-2 G12V limits assumed): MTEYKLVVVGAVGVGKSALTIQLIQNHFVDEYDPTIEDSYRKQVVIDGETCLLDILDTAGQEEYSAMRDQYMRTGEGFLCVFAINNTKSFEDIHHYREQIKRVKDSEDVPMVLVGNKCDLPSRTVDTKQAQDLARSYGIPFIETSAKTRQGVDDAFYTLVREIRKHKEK
- Sequence (P62937 whole entry): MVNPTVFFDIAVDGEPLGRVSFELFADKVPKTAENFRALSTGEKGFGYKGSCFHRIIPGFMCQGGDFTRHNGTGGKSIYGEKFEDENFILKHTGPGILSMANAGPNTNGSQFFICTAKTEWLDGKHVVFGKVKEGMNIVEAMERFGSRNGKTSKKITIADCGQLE
- measurementDescription: Ras-Raf disruption / FRET / MOA assay (BRAF RBD)
- Assay type: biochemical
- protocolConditions: KRAS G12V FRET data IC50, Ras-Raf disruption, with Cyclophilin A
pIC50: −log10 of the molar value.

Param item = CCn1c(-c2cccnc2[C@H](C)OC)c2c3cc(ccc31)-c1cc(O)cc(c1)C[C@H](NC(=O)[C@H](C1CCCC1)N(C)C(=O)CN(C)C(=O)[C@@H]1N[C@@H]1C1(F)CC1)C(=O)N1CCC[C@H](N1)C(=O)OCC(C)(C)C2 ; retrieve measured pIC50.
7.00 to 8.00

Then CCn1c(-c2cccnc2[C@H](C)OC)c2c3cc(ccc31)-c1cc(O)cc(c1)C[C@H](NC(=O)[C@H](C(C)C)N(C)C(=O)CN(C)C(=O)[C@@H]1CN1CCCC#N)C(=O)N1CCC[C@H](N1)C(=O)OCC(C)(C)C2 (some centres unmarked) ?
7.00 to 8.00

Then CCn1c(-c2cccnc2[C@H](C)OC)c2c3cc(ccc31)-c1cc(O)cc(c1)C[C@H](NC(=O)[C@H](C(C)C)N(C)C(=O)CN(C)C(=O)[C@H]1CN1)C(=O)N1CCC[C@H](N1)C(=O)OCC(C)(C)C2 (single isomer, unassigned) [Example 42B] ?
5.00 to 6.00

Then CCn1c(-c2cccnc2[C@H](C)OC)c2c3cc(ccc31)-c1cc(O)cc(c1)C[C@H](NC(=O)[C@H](C(C)C)N(C)C(=O)CN(C)C(=O)[C@H]1CN1C1COC1)C(=O)N1CCC[C@H](N1)C(=O)OCC(C)(C)C2 (some centres unmarked) ?
6.00 to 7.00

Then CCn1c(-c2cccnc2[C@H](C)OC)c2c3cc(ccc31)-c1cc(O)cc(c1)C[C@H](NC(=O)[C@H](C(C)C)N(C)C(=O)CN(C)C(=O)[C@H]1CN1)C(=O)N1CCC[C@H](N1)C(=O)OCC(C)(C)C2 (single isomer, unassigned) [Example 42A] ?
7.00 to 8.00

----------
- Tested on: NCI-H358 (K-Ras G12C)
- measurementDescription: CellTiter-Glo cell viability assay, 5-day treatment
- Format: cell-based
- protocolConditions: Homo sapiens, NCI-H358, H358, K-Ras G12C; read-out: Additional H358 Cell Viability assay data (K-Ras G12C, IC50)
reportedProperty: IC50

Give recorded IC50 with NCI-H358 (K-Ras G12C) for the following molecule: CCn1c(-c2cncnc2)c2c3cc(ccc31)-c1cc(O)cc(c1)C[C@H](NC(=O)[C@H](C(C)C)N(C)C(=O)[C@H]1CCN(C(=O)C#CCN(C)C)C1)C(=O)N1CCC[C@H](N1)C(=O)OCC(C)(C)C2 [Example A108]
< 10 nM

Then C=CC(=O)N1CC[C@H](C(=O)N(C)[C@H](C(=O)N[C@H]2Cc3nc(cs3)-c3ccc4c(c3)c(c(-c3cccnc3[C@H](C)OC)n4CC)CC(C)(C)CN(C)C[C@@H]3CCCN(N3)C2=O)C(C)C)C1 [Example A287] ?
> 1000 nM

Then C=CC(=O)N1CCO[C@H]2CN(C(=O)N(C)[C@H](C(=O)N[C@H]3Cc4cccc(c4)-c4ccc5c(c4)c(c(-c4cccnc4[C@H](C)OC)n5CC)CC(C)(C)COC(=O)C4CCCN(N4)C3=O)C(C)C)C[C@H]21 (stereo partly drawn) [Example A610] ?
< 10 nM

Then C=CC(=O)N1CCO[C@H]2CN(C(=O)N(C)[C@H](C(=O)N[C@H]3Cc4cccc(n4)-c4ccc5c(c4)c(c(-c4cccnc4[C@H](C)OC)n5CC(F)(F)F)CC(C)(C)COC(=O)C4CCCN(N4)C3=O)C(C)C)C[C@H]21 (stereo partly drawn) [Example A595] ?
< 10 nM

Then CCn1c(-c2cccnc2[C@H](C)OC)c2c3cc(ccc31)-c1cc(O)cc(c1)C[C@H](NC(=O)[C@H](C(C)C)N(C)C(=O)c1nc(NC(=O)/C=C/CN(C)C)cs1)C(=O)N1CCC[C@H](N1)C(=O)OCC(C)(C)C2 [Example A258] ?
100 to 1000 nM

Then CCn1c(-c2cccnc2[C@H](C)OC)c2c3cc(ccc31)-c1cccc(c1)C[C@H](NC(=O)[C@H](C(C)C)N(C)C(=O)[C@H]1CCN(C(=O)C#C[C@@H]3CCO3)C1)C(=O)N1CCC[C@H](N1)C(=O)OCC(C)(C)C2 [Example A509] ?
< 10 nM
